System: GB4
Assay: qHTS profiling for inhibitors of Plasmodium falciparum proliferation (AID 504749); also: nearly all actives have a fitted effect of over 60% in size
Conditions: P. falciparum in erythrocytes, SYBR Green DNA, 72 h; series mostly up to 28.7 µM
Inconclusive results are not listed. Activity calls are given as the source filed them. Calls follow the shape of the dose curve; as a rule, active = well fitted inhibition curve with a large enough effect; inconclusive = small, poorly fitted or top-dose-only effect; inactive = flat fitted curve, though single readings scatter.
Possible outcomes: active, inactive

>>> label_value("CC(C)(O)c1ccccc1CC[C@H](SCC1(CC(=O)O)CC1)c1cccc(/C=C/c2ccc3ccc(Cl)cc3n2)c1")
"inactive"
>>> label_value("O=C(CC1NCCC[C@H]1O)Cn1cnc2cc(Br)c(Cl)cc2c1=O (stereo partly drawn)")
"active"
>>> label_value("C[C@@H](C(=O)O)c1ccc(-c2ccccc2)c(F)c1")
"inactive"
>>> label_value("CN1CCN(CCC=C2c3ccccc3Sc3ccc(S(=O)(=O)N(C)C)cc32)CC1")
"active"
>>> label_value("CC(=O)[C@H]1CC[C@H]2C3CC=C4C[C@@H](O)CC[C@]4(C)C3CC[C@]12C (stereo partly drawn)")
"inactive"
>>> label_value("CC(C)C[C@@H](NC(=O)[C@H](Cc1ccccc1)NC(=O)c1cnccn1)B(O)O")
"active"
>>> label_value("CCOC(=O)C(CCc1ccccc1)NC1CCc2ccccc2N(CC(=O)O)C1=O (stereo not drawn)")
"active"
>>> label_value("C/C=C1\\C2C=C(C)CC1(N)c1ccc(=O)[nH]c1C2 (stereo not drawn)")
"inactive"

---

Tested on: 3D7
Assay: qHTS profiling for inhibitors of Plasmodium falciparum proliferation (AID 504749); also: nearly all actives have a fitted effect of over 60% in size
Conditions: P. falciparum in erythrocytes, SYBR Green DNA, 72 h; series mostly up to 28.7 µM
Inconclusive results are not listed. Active and inactive are the calls of the source. The call rests on the fitted dose curve; in most records, active means well fitted inhibition curve with a large enough effect; inconclusive means small, poorly fitted or top-dose-only effect; inactive means flat fitted curve, though single readings scatter.
Possible outcomes: y (active), n (inactive)

>>> label_value("O=C1c2cccc3c2[C@@H](CCC3)CN1[C@@H]1CN2CCC1CC2")
"n"
>>> label_value("CC(C)(O)c1ccccc1CC[C@H](SCC1(CC(=O)O)CC1)c1cccc(/C=C/c2ccc3ccc(Cl)cc3n2)c1")
"n"
>>> label_value("CCOC(=O)C(CCc1ccccc1)NC1CCc2ccccc2N(CC(=O)O)C1=O (stereo not given)")
"n"
>>> label_value("C[C@@H](C(=O)O)c1ccc(-c2ccccc2)c(F)c1")
"n"
>>> label_value("CC(C)C[C@@H](NC(=O)[C@H](Cc1ccccc1)NC(=O)c1cnccn1)B(O)O")
"y"

---

Test: qHTS for Inhibitors of Plasmodium falciparum (CP250) proliferation (AID 504320)
Details: P. falciparum CP250 in erythrocytes, SYBR Green DNA, 72 h; series mostly up to 6.7 µM
Excerpt: Plasmodium falciparum is a virulent malarial parasite that kills 1-2 million people worldwide each year. Malaria not only inflicts tremendous suffering and morbidity on the human population, but has dramatically influenced the course of civilization with profound sociological and economic implications (Shah, S. 2010). […] Because mature erythrocytes lack DNA, only Plasmodium-derived DNA is detected. […]
Inconclusive results are not listed. Calls of active or inactive are those of the source. Calls come from the whole dose curve; as a rule, active = well fitted inhibition curve with a large enough effect; inconclusive = small, poorly fitted or top-dose-only effect, or effect the other way; inactive = flat fitted curve, though single readings scatter.
Possible outcomes: active, inactive

>>> label_value("O=P1(O)Oc2c(-c3ccccc3)cc3ccccc3c2-c2c(c(-c3ccccc3)cc3ccccc23)O1")
"inactive"
>>> label_value("CCCCc1nc2c(c3c1C[C@H](C)OC3)CN(S(=O)(=O)c1ccc(NC(C)=O)cc1)CC2")
"inactive"
>>> label_value("COC(=O)CCC(=O)OC1(C)C(=O)C=C2C=C3CCCN3C=C2C1=O (stereo not drawn)")
"inactive"
>>> label_value("CCOC(=O)CN1C(=O)N[C@@H](c2ccccc2)[C@H](C(C)=O)[C@H]1C")
"inactive"
>>> label_value("COC(=O)CC=C1c2ccc3c(c2[C@@H](OC)[C@@H]1C)OCO3")
"inactive"
>>> label_value("CCCCCCCC1=Cc2ccccc2C(C(C(=O)OC)C(=O)OC)N1C(=O)OC (stereo not drawn)")
"inactive"
>>> label_value("CC1=CC[C@@H](C)O[C@@]2(C1)C(=O)N(Cc1ccc(F)cc1)c1ccccc12")
"inactive"
>>> label_value("COC(=O)CCCC1=CC2=CC(=O)C(C)(OC(=O)c3cccs3)C(=O)C2=CN1c1ccc(OC)cc1 (stereo not drawn)")
"inactive"
>>> label_value("C#CCCCON=C1C[C@@H](O)[C@H](O)[C@H]2[C@@H]3C(=O)N(c4ccc(F)cc4F)C(=O)[C@@H]3CC[C@@H]12")
"inactive"
>>> label_value("COc1cccc([C@@H]2Oc3ccc(OC)cc3C[C@@H]2OC(=O)N[C@H]2CCCc3ccccc32)c1")
"inactive"
>>> label_value("CC(C)C(=O)NC(=O)[C@@H]1CCCN1C(=O)C=Cc1ccccc1")
"inactive"
>>> label_value("CC(C)=CCCC(C)=CCON=C1C[C@@H](O)[C@@H](O)[C@@H]2[C@H]3C(=O)N(Cc4ccc5c(c4)OCO5)C(=O)[C@@H]3CC[C@@H]12")
"inactive"
>>> label_value("Cc1cc2c(c(=O)n1-c1ccccc1)[C@H]1O[C@](c3ccsc3)(Cc3ccccc31)O2")
"inactive"
>>> label_value("COc1ccc2c(c1)O[C@H](c1ccc3c(c1)OCO3)[C@@H](OC(=O)NCCOc1ccccc1)C2=O")
"inactive"
>>> label_value("COC(=O)C1=C(C)N(Cc2ccccc2)C(=NCCc2ccccn2)NC1c1cccc(C(F)(F)F)c1 (stereo not drawn)")
"active"
>>> label_value("CC1(OC(=O)C2CCCC2)C(=O)C=C2C=C(c3ccsc3)N(C(CO)CO)C=C2C1=O (stereo not drawn)")
"inactive"
>>> label_value("C[C@@H]1CC2=CCCC2[C@]2(O1)C(=O)Nc1cccc(Br)c12 (stereo partly drawn)")
"inactive"
>>> label_value("COC(=O)[C@H](COC(C)(C)C)NC(=O)O[C@@H]1C(=O)c2ccc(OC)cc2O[C@H]1c1ccc2c(c1)OCO2")
"inactive"

Provenance of the data: PubChem BioAssay (NCATS)
